Cited source: patent US20240299400A1

Test system: GLI1 mRNA expression
protocol details: RT-qPCR GLI1 mRNA expression in OHCs-stimulated C3H10T1/2 MEFs
Type: cell-based, mouse
condition context: C3H10T1/2 MEFs, 10 μM, relative to Hh-agonist OHCs (set as 100%), mean ± SEM
readout kind: % Gli1 Expression (%)
The reply should contain only the number, in %.

Param item = CCc1ccc(C(Nc2cc(C)ccn2)c2ccc3cccnc3c2O)cc1 (racemic) ; retrieve measured % Gli1 Expression.
79.4

Param item = Cc1ccnc(NC(c2cc(C)ccc2C)c2ccc3cccnc3c2O)c1 (racemic) ; retrieve measured % Gli1 Expression.
10.0

Param item = COc1ccc(C(Nc2ccccn2)c2ccc3cccnc3c2O)cc1[N+](=O)[O-] (racemic) ; retrieve measured % Gli1 Expression.
5.9

Param item = CCN(CC)c1ccc(C(Nc2ccccn2)c2ccc3ccc(C)nc3c2O)cc1 (centres unmarked) ; retrieve measured % Gli1 Expression.
5.9

Param item = CCOc1cccc(C(Nc2cc(C)ccn2)c2ccc3cccnc3c2O)c1OC (racemic) ; retrieve measured % Gli1 Expression.
63.7

Param item = COc1ccc(C(Nc2ccccn2)c2ccc3ccc(C)nc3c2O)cc1C (racemic) ; retrieve measured % Gli1 Expression.
62.1

Param item = CCOc1cc(C(Nc2cc(C)ccn2)c2ccc3cccnc3c2O)ccc1OC (racemic) ; retrieve measured % Gli1 Expression.
7.6

----------
Test system: ASZ001 cells
protocol details: MTS anti-proliferative assay in ASZ001 cells
Type: cell-based, murine
condition context: Mus musculus, ASZ001; Table 5, 48 h, Ave ± SEM
readout kind: GI50

Param item = CCN(CC)c1ccc(C(Nc2ccccn2)c2ccc3ccc(C)nc3c2OCc2cccc(OC)c2)cc1 (centres unmarked) [Compound 25] ; retrieve measured GI50.
> 100 µM

Param item = CCN(CC)c1ccc(C(Nc2ccccn2)c2c(O)ccc3cccnc23)cc1 (centres unmarked) [Compound 19] ; retrieve measured GI50.
> 100 µM

Param item = CCN(CC)c1ccc(C(Nc2ccccn2)c2ccc3ccc(C)nc3c2OCc2ccc(OC)cc2)cc1 (centres unmarked) [Compound 26] ; retrieve measured GI50.
> 100 µM

Param item = CCN(CC)c1ccc(C(C)(Nc2ccccn2)c2ccc3ccc(C)nc3c2O)cc1 (centres unmarked) [Compound 28] ; retrieve measured GI50.
25.1 µM

Param item = CCN(CC)c1ccc(C(Nc2ccccn2)c2ccc3cccnc3c2O)cc1 (centres unmarked) [Compound 15] ; retrieve measured GI50.
12.2 µM

Param item = CCN(CC)c1ccc(C(Nc2ccccn2)c2ccc3ccc(C)nc3c2OCc2ccccc2)cc1 (centres unmarked) [Compound 24] ; retrieve measured GI50.
> 100 µM

Param item = CCN(CC)c1ccc(CNc2ccccn2)cc1 [Compound 14, N-(4-Diethylaminobenzyl)pyridin-2-amine] ; retrieve measured GI50.
34.9 µM

Param item = CCN(CC)c1ccc(C(Nc2ccccn2)c2ccccc2O)cc1 (centres unmarked) [Compound 18] ; retrieve measured GI50.
> 100 µM

----------
assay target: GLI1-ZFD (Homo sapiens, UniProt P08151)
Construct: GLI1-ZFD Expression and Purification; made in house
Sequence (P08151 234-388 limits assumed): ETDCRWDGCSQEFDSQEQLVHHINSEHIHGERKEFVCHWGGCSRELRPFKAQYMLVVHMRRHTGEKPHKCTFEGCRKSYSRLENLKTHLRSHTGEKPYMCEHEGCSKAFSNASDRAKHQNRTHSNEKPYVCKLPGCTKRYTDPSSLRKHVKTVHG
protocol details: Microscale thermophoresis (MST) binding to GLI1-ZFD
condition context: Table 5, Ave ± SEM
I'd be grateful if you could share measured pKd for these entries.
pKd here: minus log base 10 of the concentration, concentration in moles per litre.

Param item = CN(C)c1ccccc1CN1CCCN(Cc2ccccc2N(C)C)C1c1ccncc1 [GANT61, reference compound] ; retrieve measured pKd.
4.19

Param item = CCN(CC)c1ccc(C(Nc2ccccn2)c2ccc3ccc(C)nc3c2O)cc1 (centres unmarked) [Compound 1] ; retrieve measured pKd.
4.86
